TARGET: PRMT5/MEP50 (Homo sapiens)
Construct: Expressed full-length human Flag-PRMT5/6His-MeP50 protein complex was purified; made in house; host or cells: Spodoptera frugiperda (SF9) insect cells, baculovirus (pDEST8)
EXPERIMENT: PRMT5 Biochemical Assay (PRMT5/MEP50 enzyme assay on peptide substrate, 3H-SAM Flashplate)
COND: Biochemical IC50
Source text: S-adenosylmethionine (SAM), S-adenosylhomocysteine (SAH), bicine, KCl, Tween20, dimethylsulfoxide (DMSO), bovine skin gelatin (BSG), and Tris(2-carboxyethyl)phosphine hydrochloride solution (TCEP) were purchased from Sigma-Aldrich at the highest level of purity possible. ^3H-SAM was purchase from American Radiolabeled Chemicals with a specific activity of 80 Ci/mmol 384-well streptavidin Flashplates were purchased from PerkinElmer. […]
pIC50: −log10 of the molar value.
REPORTED ENDPOINT: pIC50

[[record]]
compound = "O=C(COc1cccc2cccnc12)NCC(O)CN1CCc2ccccc2C1 (stereo not drawn) [Compound A6]"
result = "> 7.00"

[[record]]
compound = "O=C(COc1cccc2cccnc12)NC[C@@H](O)CN1CCc2ccccc2C1 [Compound A45]"
result = "> 7.00"


Problem: Given the compound O=C(COc1cccc2cccnc12)NC[C@H](O)CN1CCc2ccccc2C1 [Compound A44] , what is its reported pIC50?
Result: 6.00 to 7.00

* * *

The reader will find reported IC50 values listed item by item below.
TARGET: PRMT5/MEP50 (Homo sapiens, UniProt O14744)
Construct: Expressed full-length human Flag-PRMT5/6His-MeP50 protein complex was purified; made in house; host or cells: Spodoptera frugiperda (SF9) insect cells, baculovirus (pDEST8)
Sequence (O14744 with tags, fused parts or gaps): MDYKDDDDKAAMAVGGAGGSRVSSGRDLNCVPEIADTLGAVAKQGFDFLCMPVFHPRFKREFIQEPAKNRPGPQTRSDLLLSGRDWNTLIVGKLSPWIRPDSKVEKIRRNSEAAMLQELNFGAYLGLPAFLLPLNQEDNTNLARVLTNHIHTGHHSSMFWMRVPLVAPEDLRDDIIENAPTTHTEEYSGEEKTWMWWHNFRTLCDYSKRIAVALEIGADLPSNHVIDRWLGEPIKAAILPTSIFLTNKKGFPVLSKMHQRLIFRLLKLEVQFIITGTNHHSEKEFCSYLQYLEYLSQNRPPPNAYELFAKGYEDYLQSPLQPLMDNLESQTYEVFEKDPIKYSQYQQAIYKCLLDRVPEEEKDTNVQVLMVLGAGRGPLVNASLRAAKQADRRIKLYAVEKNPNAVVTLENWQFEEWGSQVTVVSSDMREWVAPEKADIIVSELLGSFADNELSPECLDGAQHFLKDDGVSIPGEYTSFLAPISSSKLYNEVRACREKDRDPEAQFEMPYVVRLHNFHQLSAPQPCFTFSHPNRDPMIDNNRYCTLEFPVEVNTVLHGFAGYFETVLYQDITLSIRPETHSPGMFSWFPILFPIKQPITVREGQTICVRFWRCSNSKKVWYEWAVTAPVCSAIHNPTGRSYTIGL
Sequence (Q9BQA1 with tags, fused parts or gaps partner limits assumed): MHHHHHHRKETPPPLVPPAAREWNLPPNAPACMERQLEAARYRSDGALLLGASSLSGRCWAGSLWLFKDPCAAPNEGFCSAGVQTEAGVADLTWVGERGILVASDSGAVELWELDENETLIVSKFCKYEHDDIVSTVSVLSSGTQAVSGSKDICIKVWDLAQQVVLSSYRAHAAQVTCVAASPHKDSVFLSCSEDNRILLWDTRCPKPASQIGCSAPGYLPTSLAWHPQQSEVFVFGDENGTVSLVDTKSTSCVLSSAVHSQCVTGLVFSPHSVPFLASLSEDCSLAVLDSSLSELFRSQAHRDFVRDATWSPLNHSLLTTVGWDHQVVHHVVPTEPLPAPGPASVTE
EXPERIMENT: PRMT5 Biochemical Assay (PRMT5/MEP50 enzyme assay on peptide substrate, 3H-SAM Flashplate)
COND: Table A-2; PRMT5/MEP50 4 nM, 3H-SAM 75 nM, peptide 40 nM; read-out: Biochemical IC50

Some solved entries appear below for comparison.
[[record]]
compound = "O=C(COc1ccc2c(cnn2C2CCNC2)c1)NCC(O)CN1CCc2ccccc2C1 (centres unmarked) [Compound A95]"
reported_endpoint = "IC50"
result = "< 100 nM"

[[record]]
compound = "CS(=O)(=O)Nc1ccccc1OCC(=O)NCC(O)CN1CCc2ccccc2C1 (centres unmarked) [Compound A53]"
reported_endpoint = "IC50"
result = "< 100 nM"

[[record]]
compound = "CN1CCCC(c2ccccc2OCC(=O)NCC(O)CN2CCc3ccccc3C2)C1 (centres unmarked) [Compound A130]"
reported_endpoint = "IC50"
result = "< 100 nM"


Problem: Given the compound NS(=O)(=O)c1ccccc1OCC(=O)NCC(O)CN1CCc2ccccc2C1 (centres unmarked) [Compound A65] , what is its reported IC50?
Result: < 100 nM

Problem: Given the compound C[C@@H](Oc1cccc2cccnc12)C(=O)NC[C@@H](O)CN1CCc2ccccc2C1 [Compound A74] , what is its reported IC50?
Result: < 100 nM

Problem: Given the compound CN(C)c1ccc2cccc(OCC(=O)NC[C@H](O)CN3CCc4ccccc4C3)c2n1 [Compound A104] , what is its reported IC50?
Result: 101 to 1000 nM

Problem: Given the compound O=C(COc1ccccc1OCCN1CCOCC1)NC[C@@H](O)CN1CCc2ccccc2C1 [Compound A87] , what is its reported IC50?
Result: 1000 to 10000 nM

Problem: Given the compound CN1CCc2c(cccc2OCC(=O)NCC(O)CN2CCc3ccccc3C2)C1 (centres unmarked) [Compound A99] , what is its reported IC50?
Result: < 100 nM
